- test_summary: Circular dichroism (CD) α-helicity
- Assay type: physicochemical
- condition_notes: Table 2; CD of free peptide, 25 °C, 1 mM Hepes pH 7.4, 5% methanol

input_smiles: CC(=O)N[C@@H](CCCCN=[N+]=[N-])C(=O)NCCC(=O)N[C@@H](CC(C)C)C(=O)N[C@H](C(=O)N[C@@H](Cc1ccccc1)C(=O)N[C@]1(C)CCCCCCC=CCCC[C@@](C)(C(=O)N[C@@H](CO)C(=O)N[C@@H](C)C(=O)N[C@@H](C)C(N)=O)NC(=O)[C@H](CC2CCC2)NC(=O)[C@H](CCC(N)=O)NC(=O)[C@H](C)N(C)C(=O)[C@H](Cc2c[nH]c3ccccc23)NC(=O)[C@H](Cc2ccc(O)cc2)NC(=O)[C@H](CCC(=O)O)NC1=O)[C@@H](C)O
Helicity (%): 16.9

====

- target_under_test: human Mdm2 1–125 (Homo sapiens, UniProt Q00987)
- Construct: GST (N); His6 (internal); TEV cleavage site ENLYFQG (internal); made in house; host or cells: Escherichia coli BL21 (DE3) Rosetta T1R
- Sequence (Q00987 with tags, fused parts or gaps): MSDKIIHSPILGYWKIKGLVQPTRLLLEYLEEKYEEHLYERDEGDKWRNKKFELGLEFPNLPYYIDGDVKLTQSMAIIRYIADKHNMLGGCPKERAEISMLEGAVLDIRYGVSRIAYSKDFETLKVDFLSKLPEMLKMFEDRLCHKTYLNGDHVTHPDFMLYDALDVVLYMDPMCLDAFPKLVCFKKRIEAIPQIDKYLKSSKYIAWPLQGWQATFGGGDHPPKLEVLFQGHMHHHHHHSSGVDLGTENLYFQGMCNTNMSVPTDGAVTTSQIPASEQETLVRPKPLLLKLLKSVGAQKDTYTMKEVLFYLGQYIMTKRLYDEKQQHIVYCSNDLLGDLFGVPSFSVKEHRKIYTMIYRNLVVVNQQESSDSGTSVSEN
- test_summary: Mdm2 binding assay (competitive fluorescence anisotropy/polarization)
- condition_notes: Table 1; competitive fluorescence polarization; read-out: Mdm2 (nM), Mdm2 binding (Kd)
Bridge positions count the residues as written; N and C are the ends. Square brackets hold non-standard residues; d marks the D form. Peptide text beside a SMILES is read from it. R8 = C=CCCCCCC[C@@](C)(N)C(=O)O; Cba = N[C@@H](CC1CCC1)C(=O)O; S5 = C=CCCC[C@](C)(N)C(=O)O
Measured Kd by item
measured_metric: Kd (nM)

compound: CC(=O)N[C@@H](CC(C)C)C(=O)N[C@H](C(=O)N[C@@H](Cc1ccccc1)C(=O)N[C@]1(C)CCCCCCC=CCCC[C@@](C)(C(=O)N[C@@H](CO)C(=O)N[C@@H](C)C(=O)N[C@@H](C)C(N)=O)NC(=O)[C@H](CC2CCC2)NC(=O)[C@H](CC(C)C)NC(=O)[C@H](C)NC(=O)[C@H](Cc2c[nH]c3ccccc23)NC(=O)[C@H](Cc2ccc(O)cc2)NC(=O)[C@H](CCC(=O)O)NC1=O)[C@@H](C)O [Peptide Q8A]
measurement: 26.5
--
compound: CC(=O)N[C@@H](CC(C)C)C(=O)N[C@H](C(=O)N[C@@H](Cc1ccccc1)C(=O)N[C@]1(C)CCCCCCC=CCCC[C@@](C)(C(=O)N[C@@H](C)C(=O)N[C@@H](C)C(=O)N[C@@H](C)C(N)=O)NC(=O)[C@H](CC2CCC2)NC(=O)[C@H](CC(C)C)NC(=O)[C@H](CCC(N)=O)NC(=O)[C@H](Cc2c[nH]c3ccccc23)NC(=O)[C@H](Cc2ccc(O)cc2)NC(=O)[C@H](CCC(=O)O)NC1=O)[C@@H](C)O [Peptide S12A] (Ac-LTF[R8]EYWQL[Cba][S5]AAA-NH2; staple 4-11)
measurement: 20.4
--
compound: CC(=O)N[C@@H](CC(C)C)C(=O)N[C@H](C(=O)N[C@@H](Cc1ccccc1)C(=O)N[C@]1(C)CCCCCCC=CCCC[C@@](C)(C(=O)N[C@@H](CO)C(=O)N[C@@H](C)C(=O)N[C@@H](C)C(N)=O)NC(=O)[C@H](CC2CCC2)NC(=O)[C@H](CC(C)C)NC(=O)[C@H](CCC(N)=O)NC(=O)[C@H](Cc2c[nH]c3ccccc23)NC(=O)[C@H](Cc2ccc(O)cc2)NC(=O)[C@H](CCC(=O)O)NC1=O)[C@@H](C)O
measurement: 18.6
--
compound: CC(=O)N[C@H](CC(C)C)C(=O)N[C@H](C(=O)N[C@@H](Cc1ccccc1)C(=O)N[C@]1(C)CCCCCCC=CCCC[C@@](C)(C(=O)N[C@@H](CO)C(=O)N[C@@H](C)C(=O)N[C@@H](C)C(N)=O)NC(=O)[C@H](CC2CCC2)NC(=O)[C@H](CC(C)C)NC(=O)[C@H](CCC(N)=O)NC(=O)[C@H](Cc2c[nH]c3ccccc23)NC(=O)[C@H](Cc2ccc(O)cc2)NC(=O)[C@H](CCC(=O)O)NC1=O)[C@@H](C)O
measurement: 31
--
compound: CC(=O)N[C@@H](CC(C)C)C(=O)N[C@H](C(=O)N[C@@H](Cc1ccccc1)C(=O)N[C@]1(C)CCCCCCC=CCCC[C@@](C)(C(=O)N[C@@H](CO)C(=O)N[C@@H](C)C(=O)N[C@@H](C)C(N)=O)NC(=O)[C@H](CC2CCC2)NC(=O)[C@H](CC(C)C)NC(=O)[C@H](CCC(N)=O)NC(=O)[C@H](Cc2c[nH]c3ccccc23)NC(=O)[C@H](Cc2ccc(O)cc2)NC(=O)[C@H](C)NC1=O)[C@@H](C)O [Peptide E5A] (Ac-LTF[R8]AYWQL[Cba][S5]SAA-NH2; staple 4-11)
measurement: 29.8
